assay-target: SARS-CoV-2 B.1.1.7 N501Y (Alpha) RBD (SARS-CoV-2, UniProt P0DTC2 319-541)
experiment-notes: Octet BLI single point, monovalent
Answer each item with its documented pKd.
Remember, pKd is on a log scale: it is -log10 of the molar concentration.

So what's the measured pKd for this one? A-6 (antibody, V domains shown) VH: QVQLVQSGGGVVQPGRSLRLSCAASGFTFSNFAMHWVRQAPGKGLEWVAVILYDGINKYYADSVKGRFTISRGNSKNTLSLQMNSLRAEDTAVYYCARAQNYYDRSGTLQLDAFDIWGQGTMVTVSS VL: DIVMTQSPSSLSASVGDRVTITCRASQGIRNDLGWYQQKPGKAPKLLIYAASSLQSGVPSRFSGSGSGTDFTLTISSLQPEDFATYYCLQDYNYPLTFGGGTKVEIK
8.84

Same question for A-9 (antibody, V domains shown) VH: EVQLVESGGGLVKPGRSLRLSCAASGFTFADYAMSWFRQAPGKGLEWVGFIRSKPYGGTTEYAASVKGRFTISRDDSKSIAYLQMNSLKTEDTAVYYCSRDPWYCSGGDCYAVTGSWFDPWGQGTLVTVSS VL: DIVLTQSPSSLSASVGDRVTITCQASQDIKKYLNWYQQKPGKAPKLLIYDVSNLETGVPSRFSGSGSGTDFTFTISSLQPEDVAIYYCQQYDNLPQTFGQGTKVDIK please.
8.00

Entry A-18 (antibody, V domains shown) VH: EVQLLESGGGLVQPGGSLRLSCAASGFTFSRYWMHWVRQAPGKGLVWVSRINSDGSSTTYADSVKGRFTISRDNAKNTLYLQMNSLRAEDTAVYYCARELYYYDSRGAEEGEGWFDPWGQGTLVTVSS VL: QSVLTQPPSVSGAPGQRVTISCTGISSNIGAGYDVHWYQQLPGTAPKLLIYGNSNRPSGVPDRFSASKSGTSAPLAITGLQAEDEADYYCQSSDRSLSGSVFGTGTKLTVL please
8.99

What would you report for A-16 (antibody, V domains shown) VH: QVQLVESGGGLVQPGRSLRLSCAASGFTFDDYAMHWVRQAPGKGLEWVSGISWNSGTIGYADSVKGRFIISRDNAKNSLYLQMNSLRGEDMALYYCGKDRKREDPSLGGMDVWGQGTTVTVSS VL: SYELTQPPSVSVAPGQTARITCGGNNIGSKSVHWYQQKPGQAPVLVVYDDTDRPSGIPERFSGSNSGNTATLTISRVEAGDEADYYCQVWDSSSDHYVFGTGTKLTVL ?
8.34

The origin of these recorded values is patent US20260217797A1.
